- assayed-target: T1, human mutCALR on BaF3 cells stably expressing human MPL and human mutCALR (MPL-mutCALR cells) (human)
- T1 construct: also called mutant calreticulin
- T1 chain: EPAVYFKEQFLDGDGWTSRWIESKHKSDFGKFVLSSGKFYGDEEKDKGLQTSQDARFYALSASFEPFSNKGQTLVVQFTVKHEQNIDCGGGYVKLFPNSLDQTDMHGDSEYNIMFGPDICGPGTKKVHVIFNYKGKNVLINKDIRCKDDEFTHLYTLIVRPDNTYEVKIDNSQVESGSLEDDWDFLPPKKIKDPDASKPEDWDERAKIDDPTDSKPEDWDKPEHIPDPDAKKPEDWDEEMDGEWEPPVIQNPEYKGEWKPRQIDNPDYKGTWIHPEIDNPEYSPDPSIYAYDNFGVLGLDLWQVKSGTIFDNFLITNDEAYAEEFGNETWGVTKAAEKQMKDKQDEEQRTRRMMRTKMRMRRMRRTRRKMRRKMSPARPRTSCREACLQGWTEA
- protocol-summary: flow cytometry, BaF3 MPL-mutCALR cells
assay-metric: EC50 (µg/mL)
Report the figure in µg/mL without appending any unit label.

anti-mutCALR antibody clone 37 (antibody, human IgG1, lambda, V domains shown, human IgG1) VH: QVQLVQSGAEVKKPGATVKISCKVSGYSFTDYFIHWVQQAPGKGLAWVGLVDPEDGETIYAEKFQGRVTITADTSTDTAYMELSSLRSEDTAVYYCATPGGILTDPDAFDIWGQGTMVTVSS VL: QSALTQPASVSGSPGQSITISCTGTSSDVGGYNYVSWYQQHPGKAPKLMIYDVSNRPSGVSNRFSGSKSGNTASLTISGLQAEDEADYYCSSYTSSSTFYVFGTGTKVTVLG :: 9.64

Problem: Give EC50 for anti-mutCALR antibody clone 58 (antibody, human IgG1, lambda, N297A, V domains shown) VH: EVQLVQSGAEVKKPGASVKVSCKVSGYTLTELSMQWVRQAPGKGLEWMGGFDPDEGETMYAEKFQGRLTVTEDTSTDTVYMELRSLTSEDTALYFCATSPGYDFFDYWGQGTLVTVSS VL: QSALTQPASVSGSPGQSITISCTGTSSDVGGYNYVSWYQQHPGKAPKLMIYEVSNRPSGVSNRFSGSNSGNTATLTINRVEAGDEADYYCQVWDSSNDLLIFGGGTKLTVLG
Result: 0.0086

Problem: Give EC50 for anti-mutCALR antibody clone 172 (antibody, human IgG1, lambda, N297A, V domains shown) VH: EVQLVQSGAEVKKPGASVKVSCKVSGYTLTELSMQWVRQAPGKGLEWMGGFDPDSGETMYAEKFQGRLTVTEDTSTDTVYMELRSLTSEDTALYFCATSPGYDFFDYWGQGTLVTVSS VL: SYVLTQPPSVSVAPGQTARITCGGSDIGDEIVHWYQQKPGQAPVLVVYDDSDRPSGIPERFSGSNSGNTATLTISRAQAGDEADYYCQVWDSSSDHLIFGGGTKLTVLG
Result: 0.0124

Source listed as patent US20230272055A1.
